Read-out: Plasminogen activator inhibitor-1 (PAI1), SERPINE1 (gene 5054)
assay-text: BSK_BE3C_PAI1: BioMAP Diversity Plus: BE3C Assay for Plasminogen activator inhibitor-1 (PAI1) Biomarker Activity (AID 2283037)
experimental-context: primary human bronchial epithelial cells; actives raise or lower the signal
Active and inactive are the calls of the source. Rule for the calls: active = hit-call score of the fitted dose curve at least 0.9, where 1 is the maximum; inactive = score below 0.9.
Answer with one of the outcomes label 1 = active, label 0 = inactive

Examples from the recorded data:
compound	class
NC(=O)NO	label 0
C=CC(=C)CCC=C(C)C	label 0
CN(C)c1ccc(Cc2ccc(N(C)C)cc2)cc1	label 0
COC(=O)c1ccccc1O	label 0
CC[C@H]1OC(=O)[C@H](C)[C@@H](O[C@H]2C[C@@](C)(OC)[C@@H](O)[C@H](C)O2)[C@H](C)[C@@H](O[C@@H]2O[C@H](C)C[C@H](N(C)C)[C@H]2O)[C@](C)(O)C[C@@H](C)C(=O)[C@H](C)[C@@H](O)[C@]1(C)O	label 0

Now for a further compound.
Q: Record lookup: outcome of this test for `COc1ccc(/C=C/S(=O)(=O)NC(=O)c2ccc(C)cc2Cl)cc1` ?
Ans: label 0
